- experimental protocol: recombinant UMI read abundance after kanamycin selection (control-corrected) (log10(CPM+1)); higher = more efficient recombination; extreme values may be limits of the assay; sequences stand for … in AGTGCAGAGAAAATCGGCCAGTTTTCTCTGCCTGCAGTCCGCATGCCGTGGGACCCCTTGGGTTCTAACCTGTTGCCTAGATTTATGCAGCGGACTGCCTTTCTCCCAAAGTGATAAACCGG…AGGTTGGTTTCACT; site = the 11-nt donor;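 note: IS621 bridge recombinase in Escherichia coli cells against a fixed T5 target plasmid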
outcome measure: recombinant UMI read abundance (log10)
Returns: the value as a bare number; no unit string appended.

Consider the following illustrative entries.
| monomer sequence | recombinant UMI read abundance (log10) |
| --- | --- |
| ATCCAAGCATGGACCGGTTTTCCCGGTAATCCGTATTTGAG (site ATGCAAGCTCT) | 0.0198 |
| CGATACTCATGGACCGGTTTTCCCGGTAATCCGTATTTGCT (site CGATCATCTAG) | 0 |
| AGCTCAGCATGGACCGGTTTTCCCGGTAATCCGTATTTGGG (site AGCTCCGCTCC) | 0.0147 |
| CCCAGATCATGGACCGGTTTTCCCGGTAATCCGTATTTGTC (site CCCAGATCTGA) | 0 |
| CACGTCCCATGGACCGGTTTTCCCGGTAATCCGTATTTGTT (site CACGGCCCTAA) | 0.00825 |

Entry under test: CCCATATCATGGACCGGTTTTCCCGGTAATCCGTATTTGAC (site CCCATATCTGA) . Its recombinant UMI read abundance (log10) was 0

Just so you know, measured recombinant UMI read abundance (log10) for CCCTATCCATGGACCGGTTTTCCCGGTAATCCGTATTTGCC (site CCCTATCCTGG) came out at 0.417

Entry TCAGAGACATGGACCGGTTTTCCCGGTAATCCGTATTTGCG (site TCAGGGACTCG) ; recombinant UMI read abundance (log10) = 0.0144

The measured recombinant UMI read abundance (log10) associated with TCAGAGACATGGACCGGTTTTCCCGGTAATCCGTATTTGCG (site TCAGAGACTGG) reads 0.387

Taken from the supplement of paper PMC11208160.
